System: NIH/3T3 cells
test description: Cytotoxicity assay (CCK-8 cell viability)
Assay type: cell-based, mouse
run conditions: EC50 NIH/3T3 / IC50 B. caballi
Description: Cultures of human foreskin fibroblast (HFF; HFF-1 ATCC® SCRC-1041™), Madin–Darby bovine kidney (MDBK; ECACC) and mouse embryonic fibroblast (NIH/3T3; ATCC® CRL-1658™) cells were retrieved from −80 °C stock and cultured continuously at 37 °C under atmosphere 5% CO2 in our laboratory. The NIH/3T3 and HFFs cells were maintained in Dulbecco Modified Eagle’s Medium (DMEM; Gibco, Grand Island, NY, USA), while MDBK cell line grown in Minimum Essential Medium Eagle (MEM; Gibco). […]

molecule: COC(=O)c1c(C)cc(OC(=O)c2c(C)cc(O)c(C=O)c2O)c(C)c1O
Selective Index NIH/3T3: 13.7

molecule: CC(C)/N=c1\cc2n(-c3ccc(Cl)cc3)c3ccccc3nc-2cc1Nc1ccc(Cl)cc1
Selective Index NIH/3T3: ˃12.6

molecule: CC(=O)NCC(=O)O.CC(=O)NCC(=O)O.N=C(N)c1ccc(N=NNc2ccc(C(=N)N)cc2)cc1 [DA, diminazene aceturate]
Selective Index NIH/3T3: ˃5000

###

Listed here are compounds together with their documented Selective Index MDBK.
System: MDBK cells
test description: Cytotoxicity assay (CCK-8 cell viability)
Assay type: cell-based, bovine
run conditions: EC50 MDBK / IC50 B. bigemina
Keep it simple and answer with nothing but the number.

structure notation: CC(C)/N=c1\cc2n(-c3ccc(Cl)cc3)c3ccccc3nc-2cc1Nc1ccc(Cl)cc1
Selective Index MDBK: 6.1

Continue with the compound presented below.
QUERY: Form field: Selective Index MDBK recorded for COC(=O)c1c(C)cc(OC(=O)c2c(C)cc(O)c(C=O)c2O)c(C)c1O with MDBK cells (enter value)
RESULT: 12.0

###

Test system: B. caballi
test description: In vitro growth inhibition, Babesia fluorescent (SYBR Green I) assay
Assay type: cell-based
run conditions: Babesia caballi, 96 h, 4 days culture, mean of triplicate experiments
measured metric: IC50 (µM)
Entry rule: numbers only, all in µM.

compound: COC(=O)c1c(C)cc(OC(=O)c2c(C)cc(O)c(C=O)c2O)c(C)c1O [ATR, Atranorin]
IC50 (µM): 46.6

Please find the next compound below.
QUERY: For the record O=C1C(O)=C([C@H]2CC[C@H](c3ccc(Cl)cc3)CC2)C(=O)c2ccccc21 [AV, atovaquone] , what value of IC50 is listed for B. caballi?
RESULT: 0.1

###

System: HFFs
test description: Cytotoxicity assay (CCK-8 cell viability)
Format: cell-based, human
run conditions: EC50 HFFs / IC50 B. bigemina
measured metric: Selective Index HFFs

structure notation: COC(=O)c1c(C)cc(OC(=O)c2c(C)cc(O)c(C=O)c2O)c(C)c1O
target entity: HFFs
observed measurement: 11.6

structure notation: CC(C)/N=c1\cc2n(-c3ccc(Cl)cc3)c3ccccc3nc-2cc1Nc1ccc(Cl)cc1
target entity: HFFs
observed measurement: ˃17.5

###

Collected pIC50 values appear next to each entry.
Test system: T. equi
test description: In vitro growth inhibition, Babesia fluorescent (SYBR Green I) assay
Type: cell-based
run conditions: 96 h, 4 days culture, mean of triplicate experiments
pIC50 here: minus log base 10 of the concentration, concentration in moles per litre.

structure notation: O=C1C(O)=C([C@H]2CC[C@H](c3ccc(Cl)cc3)CC2)C(=O)c2ccccc21
pIC50: 7.05

QUERY: I'd like to know its pIC50. The compound in question is COC(=O)c1c(C)cc(OC(=O)c2c(C)cc(O)c(C=O)c2O)c(C)c1O
RESULT: 4.15

QUERY: Recorded pIC50 of CC(C)/N=c1\cc2n(-c3ccc(Cl)cc3)c3ccccc3nc-2cc1Nc1ccc(Cl)cc1 , please.
RESULT: 5.54
